- assay.remarks: CCTE_Shafer_MEA_dev_LDH: CCTE's Lactate Dehydrogenase Assay for Cytotoxicity in the Neural Network Formation Assay, Shafer Lab (AID 2284068);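 note: exposure for twelve days from plating with re-dosing on DIV 5 and 9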
Inconclusive results are not listed. Calls of active or inactive are those of the source. Rule for the calls: active = hit-call score of the fitted dose curve at least 0.9, where 1 is the maximum; inconclusive = response in the unintended direction; inactive = score below 0.9.
Log the outcome using a class from active, inactive

Sample answers from the record:
[
  {
    "compound": "ClC1=C(Cl)[C@]2(Cl)[C@@H]3[C@@H](Cl)[C@H]4O[C@H]4[C@@H]3C1(Cl)C2(Cl)Cl",
    "classification": "active"
  },
  {
    "compound": "ClC1=C(Cl)[C@]2(Cl)[C@@H]3[C@@H]4C[C@@H]([C@H]5O[C@@H]45)[C@@H]3[C@@]1(Cl)C2(Cl)Cl",
    "classification": "active"
  },
  {
    "compound": "ClC(Cl)=C(c1ccc(Cl)cc1)c1ccc(Cl)cc1",
    "classification": "active"
  },
  {
    "compound": "ClC1=C(Cl)[C@]2(Cl)[C@@H]3[C@H]4C[C@H]([C@@H]5O[C@H]45)[C@@H]3[C@@]1(Cl)C2(Cl)Cl",
    "classification": "inactive"
  },
  {
    "compound": "Clc1ccc(C(c2ccccc2Cl)C(Cl)(Cl)Cl)cc1 (configuration not stated)",
    "classification": "active"
  },
  {
    "compound": "O=C(O)C(F)(F)C(F)(F)C(F)(F)C(F)(F)C(F)(F)F",
    "classification": "inactive"
  }
]

## Input Please let me know the test result on file for COc1ccc(O)c(C(C)(C)C)c1 .
## Output inactive

###

- Read-out: HGF (gene 3082)
- assay.remarks: LTEA_HepaRG_HGF: Life Technologies and Expression Analysis (LTEA) Assay for Hepatocyte Growth Facto (HGF) using HepaRG (AID 2283505)
- condition.info: mRNA level, 48 h; actives raise or lower the signal
Active and inactive are the calls of the source. How the source made its calls: active means hit-call score of the fitted dose curve at least 0.9, where 1 is the maximum; inactive means score below 0.9.
Your reply should match one of these outcome classes. 1 (active), -1 (inactive)

[
  {
    "compound": "ClC1=C(Cl)[C@]2(Cl)[C@@H]3[C@H]4C[C@H]([C@@H]5O[C@H]45)[C@@H]3[C@@]1(Cl)C2(Cl)Cl",
    "classification": -1
  },
  {
    "compound": "COc1ccc(O)c(C(C)(C)C)c1",
    "classification": -1
  },
  {
    "compound": "C[C@]12CCC(=O)C=C1CC[C@@H]1[C@@H]2CC[C@@]2(C)[C@H]1CC[C@]2(C)O",
    "classification": -1
  }
]

## Input Lab log entry: NS(=O)(=O)C(F)(F)C(F)(F)C(F)(F)C(F)(F)C(F)(F)C(F)(F)C(F)(F)C(F)(F)F — outcome as called in the assay?
## Output 1

## Input Please give the result for Nn1cnnc1 too.
## Output -1

## Input Do the same for Cc1ccc(O)c(C)c1 please
## Output -1

## Input Please give the result for CCCN(CCC)N=O too.
## Output -1

## Input Please do the same for CCC(C)(CC)c1cc(NC(=O)c2c(OC)cccc2OC)on1 as well.
## Output -1

## Input How about this compound: CC(C)(c1ccccc1)c1ccc(O)cc1
## Output 1

###

- Read-out: growth arrest and DNA damage 45 (GADD45B), GADD45B (gene 4616)
- assay.remarks: LTEA_HepaRG_GADD45B: Life Technologies and Expression Analysis (LTEA) Assay for growth arrest and DNA damage 45 (GADD45B) using HepaRG (AID 2283461)
- condition.info: mRNA level, 48 h; actives raise or lower the signal
Active and inactive are the calls of the source. How the source made its calls: active means hit-call score of the fitted dose curve at least 0.9, where 1 is the maximum; inactive means score below 0.9.
The categories you may choose from are t for active, f for inactive

[
  {
    "molecule": "C[C@]12CCC(=O)C=C1CC[C@@H]1[C@@H]2CC[C@]2(C)C(=O)CC[C@@H]12",
    "classification": "f"
  },
  {
    "molecule": "O=NN(c1ccccc1)c1ccccc1",
    "classification": "f"
  },
  {
    "molecule": "Oc1ccc(Cl)cc1Cl",
    "classification": "f"
  },
  {
    "molecule": "O=C(O)C(F)(F)C(F)(F)C(F)(F)C(F)(F)C(F)(F)F",
    "classification": "f"
  },
  {
    "molecule": "Clc1ccc(C(c2ccccc2Cl)C(Cl)(Cl)Cl)cc1 (stereo unspecified)",
    "classification": "f"
  }
]

Pending molecule:
## Input What did this assay record as the result for C[C@]12CCC(=O)C=C1CC[C@@H]1[C@@H]2CC[C@@]2(C)[C@H]1CC[C@]2(C)O ?
## Output f
